From: patent US20230348616A1

- Target System: T1, 8A
- T1 construct: also called HLA-A2 / point-mutant NY-ESO peptide 8A complex on T2 cells
- Protocol Description: flow cytometry on peptide-pulsed T2 cells, scFv 100 nM
Recorded Endpoint: standardized gMFI
API note: the answer field is a bare number with no unit suffix.

Input line: Kindly indicate its recorded standardized gMFI. Item: NYA-2044 (scFv, also called NYA-2044 tag adduct) scFv: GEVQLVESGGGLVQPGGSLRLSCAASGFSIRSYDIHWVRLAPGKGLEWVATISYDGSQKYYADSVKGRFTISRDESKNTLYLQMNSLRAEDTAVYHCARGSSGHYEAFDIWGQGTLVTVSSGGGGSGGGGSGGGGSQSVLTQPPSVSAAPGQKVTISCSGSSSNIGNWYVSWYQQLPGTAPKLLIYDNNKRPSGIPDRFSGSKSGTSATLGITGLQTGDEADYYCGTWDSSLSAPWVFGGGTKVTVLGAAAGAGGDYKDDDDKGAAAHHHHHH
Output line: 10

Input line: Assign standardized gMFI to the following record: NYA-2060 (scFv, also called NYA-2060 tag adduct) scFv: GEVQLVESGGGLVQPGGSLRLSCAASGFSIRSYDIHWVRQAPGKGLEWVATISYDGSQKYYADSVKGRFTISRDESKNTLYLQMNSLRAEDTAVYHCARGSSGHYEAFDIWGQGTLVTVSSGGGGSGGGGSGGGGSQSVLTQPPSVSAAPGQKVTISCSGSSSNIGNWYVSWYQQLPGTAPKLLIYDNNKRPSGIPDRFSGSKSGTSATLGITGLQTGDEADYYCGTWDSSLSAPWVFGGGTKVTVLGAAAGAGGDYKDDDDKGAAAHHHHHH
Output line: 6.18

Input line: Determine from records and report standardized gMFI for NYA-2035 (scFv) scFv: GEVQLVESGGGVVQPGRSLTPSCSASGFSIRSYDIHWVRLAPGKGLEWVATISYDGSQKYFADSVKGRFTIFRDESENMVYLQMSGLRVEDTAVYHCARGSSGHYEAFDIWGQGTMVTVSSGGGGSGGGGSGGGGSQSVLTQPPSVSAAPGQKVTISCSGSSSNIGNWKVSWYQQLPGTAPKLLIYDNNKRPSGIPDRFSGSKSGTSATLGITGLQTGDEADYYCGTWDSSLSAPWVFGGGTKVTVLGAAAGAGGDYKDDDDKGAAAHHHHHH
Output line: 6.41

Input line: For the binder NYA-2045 (scFv, also called NYA-2045 tag adduct) scFv: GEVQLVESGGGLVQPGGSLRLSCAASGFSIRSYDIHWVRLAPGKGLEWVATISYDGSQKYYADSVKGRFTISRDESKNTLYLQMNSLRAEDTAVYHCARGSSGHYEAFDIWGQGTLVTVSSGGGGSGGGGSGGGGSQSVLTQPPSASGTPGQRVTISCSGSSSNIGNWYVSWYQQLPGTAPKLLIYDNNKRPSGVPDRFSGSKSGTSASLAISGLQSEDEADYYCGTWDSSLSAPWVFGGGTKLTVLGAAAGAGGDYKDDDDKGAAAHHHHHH , give its reported standardized gMFI.
Output line: 7.35

Input line: Indicate its recorded standardized gMFI; the binder in question is NYA-2143 (scFv) scFv: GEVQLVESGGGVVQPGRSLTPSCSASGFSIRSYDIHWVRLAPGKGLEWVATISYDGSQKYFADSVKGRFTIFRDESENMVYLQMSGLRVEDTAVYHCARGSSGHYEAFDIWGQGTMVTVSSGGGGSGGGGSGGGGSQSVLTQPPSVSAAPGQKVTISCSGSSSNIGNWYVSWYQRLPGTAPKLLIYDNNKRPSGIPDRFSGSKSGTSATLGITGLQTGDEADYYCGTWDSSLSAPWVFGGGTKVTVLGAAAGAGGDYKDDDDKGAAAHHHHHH
Output line: 9.69
